Just for reference, the supplement of paper PMC10567573 is where these values come from.

B1: KRT34 (parent)
chain: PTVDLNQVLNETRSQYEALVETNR

Variants of: B1
Run Description: protein stability index of a GFP-peptide fusion (GPS, HEK-293T) (PSI 1-6); higher = more stable;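 further: lentivirally expressed fusions sorted by FACS into six bins by GFP to DsRed ratio, PSI derived from sequencing read proportions per bin multiplied by bin number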
Cond: c terminus: a fixed tail appended
Observable: protein stability index
Give the figure by itself; no unit, no explanation.

1. E11Q = 3.93
2. N23K = 3.95
3. D4E = 4.01
4. E11A = 4.06
5. T22E = 4.11
6. T22R = 4.46
7. L9W = 4.04
8. Q15C = 2.94

Requested field: protein stability index. Item: `V3A`
3.63
